Value source: patent US20150274820A1

Molecular target: T1, recombinant human VEGF165 (human, UniProt P15692 27-191)
T1 construct: mature; Isoform VEGF165 of the entry; also called hVEGF165; hVEGF
T1 sequence (P15692 other isoform, or with tags, fused parts or gaps): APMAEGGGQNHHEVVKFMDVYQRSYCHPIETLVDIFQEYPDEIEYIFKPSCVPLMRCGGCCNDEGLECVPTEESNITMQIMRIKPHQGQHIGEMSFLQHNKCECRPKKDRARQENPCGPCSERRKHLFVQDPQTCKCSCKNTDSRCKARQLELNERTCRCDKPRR
Assay: Biacore SPR, VEGF immobilized, pH 7.4
measurement.type: koff (s⁻¹)
Quick reminder: number only, in s⁻¹, skip the unit.

>>> observed_result("567-min (scFv, also called Protein Nr; 884) scFv: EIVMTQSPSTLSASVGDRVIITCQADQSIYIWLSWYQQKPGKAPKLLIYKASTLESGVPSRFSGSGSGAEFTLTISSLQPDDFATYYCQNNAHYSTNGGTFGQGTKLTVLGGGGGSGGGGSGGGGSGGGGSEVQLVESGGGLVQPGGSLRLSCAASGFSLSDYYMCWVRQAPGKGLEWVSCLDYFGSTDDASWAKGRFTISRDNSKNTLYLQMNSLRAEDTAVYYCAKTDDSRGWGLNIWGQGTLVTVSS")
0.0007

Consider now this further binder.
Req: I'd like to know its koff. The binder in question is 509-min (scFv, VL and VH tied by name; also called Protein Nr; 854) scFv: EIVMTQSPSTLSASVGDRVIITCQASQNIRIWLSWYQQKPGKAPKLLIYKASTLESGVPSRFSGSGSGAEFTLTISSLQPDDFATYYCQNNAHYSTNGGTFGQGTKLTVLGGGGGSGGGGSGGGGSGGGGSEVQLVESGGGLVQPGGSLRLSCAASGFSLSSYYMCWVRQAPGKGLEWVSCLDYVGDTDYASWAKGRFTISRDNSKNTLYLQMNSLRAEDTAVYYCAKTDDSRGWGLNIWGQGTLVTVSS
Resp: 0.0108
